experimental_details: Peptide solubility in PBS/H2O
setup_conditions: water, Solubility in H2O (mg/ml), H2O (second figure of cell)
Residues, ends and D or L forms follow the SMILES beside them.
test_readout: solubility (µg/mL)
Write down the numeric answer in µg/mL and omit the unit.

CC(=O)NCCCC[C@H](NC(=O)[C@@H]1CCCN1C(=O)[C@H](CCCNC(=N)N)NC(=O)[C@H](Cc1ccc(O)cc1)NC(=O)[C@@H]1CCCN1C(=O)[C@@H](NC(=O)[C@H](CO)NC(=O)[C@H](CC(=O)O)NC(=O)[C@@H]1CCCN1C(=O)[C@H](Cc1ccc(O)cc1)NC(=O)[C@H](C)NC(=O)[C@H](CC(C)C)NC(=O)[C@H](Cc1c[nH]c2ccccc12)NC(=O)CCN)C(C)C)C(=O)O | 5000
CC(C)C[C@H](NC(=O)[C@H](Cc1c[nH]c2ccccc12)NC(=O)CCN)C(=O)N[C@@H](C)C(=O)N[C@@H](Cc1ccc(O)cc1)C(=O)N1CCC[C@H]1C(=O)N[C@@H](CC(=O)O)C(=O)N[C@@H](CO)C(=O)N[C@H](C(=O)N1CCC[C@H]1C(=O)N[C@@H](Cc1ccc(O)cc1)C(=O)N[C@@H](CCCNC(=N)N)C(=O)N1CCC[C@H]1C(=O)N[C@@H](CCCCNC(=O)CCCC[C@@H]1SC[C@@H]2NC(=O)N[C@@H]21)C(N)=O)C(C)C | 5000
CC(C)C[C@H](NC(=O)[C@H](Cc1c[nH]c2ccccc12)NC(=O)CCN)C(=O)N[C@@H](C)C(=O)N[C@@H](Cc1ccc(O)cc1)C(=O)N1CCC[C@H]1C(=O)N[C@@H](CC(=O)O)C(=O)N[C@@H](CO)C(=O)N[C@H](C(=O)N1CCC[C@H]1C(=O)N[C@@H](Cc1ccc(O)cc1)C(=O)N[C@@H](CCCNC(=N)N)C(=O)O)C(C)C [βA-WLA-YR] (HELM PEPTIDE1{[bAla].W.L.A.Y.P.D.S.V.P.Y.R}$$$$V2.0; N-terminus and C-terminus assumed) | 5000
CC(C)C[C@H](NC(=O)[C@H](Cc1c[nH]c2ccccc12)NC(=O)CCN)C(=O)N[C@@H](C)C(=O)N[C@@H](Cc1ccc(O)cc1)C(=O)N1CCC[C@H]1C(=O)N[C@@H](CC(=O)O)C(=O)N[C@@H](CO)C(=O)N[C@H](C(=O)N1CCC[C@H]1C(=O)N[C@@H](Cc1ccc(O)cc1)C(N)=O)C(C)C [βA-WLA-Yam] (HELM PEPTIDE1{[bAla].W.L.A.Y.P.D.S.V.P.Y.[am]}$$$$V2.0; N-terminus assumed) | 5000

// next item, solubility requested
I am curious: what solubility value has been reported for CSCC[C@H](NC(=O)[C@@H]1CCCN1C(=O)[C@@H](NC(=O)[C@H](CO)NC(=O)[C@H](CC(=O)O)NC(=O)[C@@H]1CCCN1C(=O)[C@H](Cc1ccc(O)cc1)NC(=O)[C@H](C)NC(=O)[C@H](CC(C)C)NC(=O)[C@H](Cc1c[nH]c2ccccc12)NC(=O)CCN)C(C)C)C(N)=O [βA-WLAam] (HELM PEPTIDE1{[bAla].W.L.A.Y.P.D.S.V.P.M.[am]}$$$$V2.0; N-terminus assumed) ?
10000

---

Quick reference for IC50 among some compounds
study_system: EphA2 (Homo sapiens, UniProt P29317)
Sequence (P29317 24-537 limits assumed, species assumed): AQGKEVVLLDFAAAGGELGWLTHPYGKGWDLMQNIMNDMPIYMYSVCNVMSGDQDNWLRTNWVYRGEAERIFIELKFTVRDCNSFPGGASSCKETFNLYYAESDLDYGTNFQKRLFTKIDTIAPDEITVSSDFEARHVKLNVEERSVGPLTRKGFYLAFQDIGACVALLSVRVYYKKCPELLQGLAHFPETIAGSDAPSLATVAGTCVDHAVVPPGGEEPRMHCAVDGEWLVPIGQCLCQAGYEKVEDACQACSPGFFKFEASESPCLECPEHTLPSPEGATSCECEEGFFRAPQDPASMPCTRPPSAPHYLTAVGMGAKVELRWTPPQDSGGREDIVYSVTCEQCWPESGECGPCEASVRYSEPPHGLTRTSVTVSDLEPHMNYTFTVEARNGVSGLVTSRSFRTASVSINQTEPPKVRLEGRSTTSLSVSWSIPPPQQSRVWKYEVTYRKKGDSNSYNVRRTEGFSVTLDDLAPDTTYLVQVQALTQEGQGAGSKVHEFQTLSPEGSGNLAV
experimental_details: ELISA: inhibition of ephrin-A5 AP binding to immobilized EphA2 Fc
Parameters: the immobilized EphA2 extracellular domain fused to the Fc portion of an antibody (EphA2 Fc)
setup_conditions: average ± SE
Non-standard residues stand in square brackets, D forms with d. Residues, ends and D or L forms follow the SMILES beside them. *: point of attachment. Biotin = O=C1N[C@H]2[C@H](CS[C@H]2CCCCC(=O)*)N1; βAla = NCCC(=O)O
Answer with the value and then the unit.

Observe how each entry below is paired with its result.
CC(C)C[C@H](NC(=O)[C@H](Cc1c[nH]c2ccccc12)NC(=O)CCN)C(=O)N[C@@H](C)C(=O)N[C@@H](Cc1ccc(O)cc1)C(=O)N1CCC[C@H]1C(=O)N[C@@H](CC(=O)O)C(=O)N[C@@H](CO)C(=O)N[C@H](C(=O)N1CCC[C@H]1C(=O)N[C@@H](Cc1ccc(O)cc1)C(=O)NCC(=O)N[C@@H](CO)C(=O)NCC(=O)N[C@@H](CCCCNC(=O)CCCC[C@@H]1SC[C@@H]2NC(=O)N[C@@H]21)C(=O)O)C(C)C [βA-WLA-YGSGK-bio] (H-[βAla]WLAYPDSVPYGSGK(Biotin)-OH; N-terminus and C-terminus assumed) | 330 nM
CC(C)C[C@H](NC(=O)[C@H](Cc1c[nH]c2ccccc12)NC(=O)CCN)C(=O)N[C@@H](C)C(=O)N[C@@H](Cc1ccc(O)cc1)C(=O)N1CCC[C@H]1C(=O)N[C@@H](CC(=O)O)C(=O)N[C@@H](CO)C(=O)N[C@H](C(=O)N1CCC[C@H]1C(=O)N[C@@H](Cc1ccc(O)cc1)C(=O)N[C@@H](CO)C(=O)N1CCC[C@H]1C(=O)N[C@@H](CCCCNC(=O)CCCC[C@@H]1SC[C@@H]2NC(=O)N[C@@H]21)C(=O)O)C(C)C [βA-WLA-YSPK-bio] (H-[βAla]WLAYPDSVPYSPK(Biotin)-OH; N-terminus and C-terminus assumed) | 62 nM
CC(C)C[C@H](NC(=O)[C@H](Cc1c[nH]c2ccccc12)NC(=O)CCN)C(=O)N[C@@H](C)C(=O)N[C@@H](Cc1ccc(O)cc1)C(=O)N1CCC[C@H]1C(=O)N[C@@H](CC(=O)O)C(=O)N[C@@H](CO)C(=O)N[C@H](C(=O)N1CCC[C@H]1C(=O)N[C@@H](Cc1ccc(O)cc1)C(=O)N[C@@H](CO)C(=O)N[C@@H](CCCCN)C(=O)O)C(C)C [βA-WLA-YSK] (HELM PEPTIDE1{[bAla].W.L.A.Y.P.D.S.V.P.Y.S.K}$$$$V2.0; N-terminus and C-terminus assumed) | 380 nM

// moving on: another record for IC50
Param readout= IC50; system= EphA2 (Homo sapiens, UniProt P29317); entry= CC(C)C[C@H](NC(=O)[C@H](Cc1c[nH]c2ccccc12)NC(=O)CCN)C(=O)N[C@@H](C)C(=O)N[C@@H](Cc1ccc(O)cc1)C(=O)N1CCC[C@H]1C(=O)N[C@@H](CC(=O)O)C(=O)N[C@@H](CO)C(=O)N[C@H](C(=O)N1CCC[C@H]1C(=O)N[C@@H](Cc1ccc(O)cc1)C(=O)N[C@@H](CCCCNC(=O)CCCC[C@@H]1SC[C@@H]2NC(=O)N[C@@H]21)C(=O)O)C(C)C [βA-WLA-YK-bio] (H-[βAla]WLAYPDSVPYK(Biotin)-OH; N-terminus and C-terminus assumed) ; returns value.
730 nM

---

# key: entry, value: IC50
study_system: EphA2 (Homo sapiens)
experimental_details: ELISA: inhibition of ephrin-A5 AP binding to immobilized EphA2 Fc
Design: the immobilized EphA2 extracellular domain fused to the Fc portion of an antibody (EphA2 Fc)
setup_conditions: average ± SE
Give the number; nM is assumed, so skip it.

CSCC[C@H](NC(=O)[C@H](CCSC)NC(=O)[C@@H]1CCCN1C(=O)[C@@H](NC(=O)[C@H](CO)NC(=O)[C@H](CC(=O)O)NC(=O)[C@@H]1CCCN1C(=O)[C@H](Cc1ccc(O)cc1)NC(=O)[C@H](C)NC(=O)[C@H](CO)NC(=O)[C@@H](N)Cc1ccc(O)cc1)C(C)C)C(=O)N[C@@H](CO)C(=O)NCC(=O)N[C@@H](CO)C(=O)NCC(=O)N[C@@H](CO)C(=O)N[C@@H](CCCCN)C(=O)O [YSA-GSGSK] | 4500

Return IC50 measured with EphA2 (Homo sapiens) given this compound: CC(C)C[C@H](NC(=O)[C@H](Cc1c[nH]c2ccccc12)NC(=O)CCN)C(=O)N[C@@H](C)C(=O)N[C@@H](Cc1ccc(O)cc1)C(=O)N1CCC[C@H]1C(=O)N[C@@H](CC(=O)O)C(=O)N[C@@H](CO)C(=O)N[C@H](C(=O)N1CCC[C@H]1C(=O)N[C@@H](Cc1ccc(O)cc1)C(=O)N[C@@H](CCCNC(=N)N)C(=O)N1CCC[C@H]1C(=O)N[C@@H](CCCCNC(=O)CCCC[C@@H]1SC[C@@H]2NC(=O)N[C@@H]21)C(N)=O)C(C)C [βA-WLA-YRPKam-bio]
18

---

study_system: EphA2 (Homo sapiens)
experimental_details: ELISA: inhibition of ephrin-A5 AP binding to immobilized EphA2 Fc
Parameters: the immobilized EphA2 extracellular domain fused to the Fc portion of an antibody (EphA2 Fc)
setup_conditions: average ± SE
No end group written: not given here.
test_readout: IC50 (nM)
Just the number in nM, nothing appended.

I'm curious: which IC50 was measured for WLAYPDSVPM-NH2 [WLAam] tested on EphA2 (Homo sapiens)?
1500

// data source = patent US12398179B2
